study-target: Muscarinic acetylcholine receptor M4 (Homo sapiens, UniProt P08173)
Sequence (P08173 whole entry): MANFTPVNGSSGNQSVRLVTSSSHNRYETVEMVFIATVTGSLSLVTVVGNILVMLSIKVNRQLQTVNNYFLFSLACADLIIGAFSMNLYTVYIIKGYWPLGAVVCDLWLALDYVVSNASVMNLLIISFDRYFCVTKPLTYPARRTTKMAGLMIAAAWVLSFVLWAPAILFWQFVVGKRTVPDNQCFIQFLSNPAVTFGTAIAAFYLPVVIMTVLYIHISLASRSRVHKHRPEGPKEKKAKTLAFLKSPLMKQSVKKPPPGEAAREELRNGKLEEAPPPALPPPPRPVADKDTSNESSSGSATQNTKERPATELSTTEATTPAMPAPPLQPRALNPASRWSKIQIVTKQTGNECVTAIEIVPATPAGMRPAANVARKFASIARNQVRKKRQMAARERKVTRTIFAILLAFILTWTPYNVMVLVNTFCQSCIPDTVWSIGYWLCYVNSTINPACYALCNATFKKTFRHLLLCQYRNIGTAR
pIC50: −log10 of the molar value.
readout-label: pIC50

>>> numeric_value("Cc1c(C(=O)c2ccc(Cl)cc2)c2ccc(OC(F)(F)F)cc2n1Cc1cccc(O[C@H](C)C(=O)O)c1")
5.87
